tested on: UACC-62; test: NCI tumour cell line growth inhibition, 48 h
Active and inactive are the calls of the source. No stated cut-off is given here; in the data, active = GI50 up to about 1.1 µM and inactive = higher.
Hello, when you answer, please use one of the following outcomes: active, inactive

Molecule	Target entity	Label value
COc1ccc(C2C3=C(COC3=O)Oc3cc4c(cc32)OCO4)c(OC)c1 (stereo unspecified)	UACC-62	inactive
Cc1c(C(=O)O)n(C)c(=O)n(C)c1=O	UACC-62	inactive
C/C=C/C(C#N)(/C=C/c1ccccc1)OP1(=O)OC(c2ccccc2)C(C)N1C (stereo unspecified)	UACC-62	inactive
N#CSC1CCCCNC1=O (stereo unspecified)	UACC-62	inactive
CCCCC(=C=C1CCCCC1O)C1CCCN1C(=O)OC(C)(C)C (stereo unspecified)	UACC-62	inactive

Entry CN(C)C(C1=C(O)C(c2ccccc2)N(c2ccccc2)C1=O)N1CCOCC1 (stereo unspecified) : call = ? inactive

What call does the record list for Cc1cccc2nc3cc(O)cc(O)c3c(O)c12 ? inactive

// outcome(item) with item = O=C(CNC(=O)OCc1ccccc1)Oc1ccccc1 inactive

Tell me the assay call for COc1ccc(-c2cc(O)c3cc4c(cc3n2)OCO4)cc1OC please. inactive

Please state the recorded outcome for this molecule: O=[N+]([O-])c1cccc2nccc(NCC(O)CO)c12 (stereo unspecified) inactive

Could you check what this test reported for Cc1cc(NC(=O)NC(=O)c2ccccc2[N+](=O)[O-])ccc1Oc1ncc(Cl)cn1 ? active

---

system: A549; assay: NCI tumour cell line growth inhibition, 48 h
Calls of active or inactive are those of the source. Cut-off read from the data, not from the text of the source: active = GI50 up to about 1.1 µM and inactive = higher.
Measured quantity: GI50

Compound	Target entity	GI50
CN1C/C(=C\c2ccc(Cl)cc2)C(=O)/C(=C/c2ccc(Cl)cc2)C1	A549	2.2 µM (inactive)

Please look at the items below and tell me GI50 for each one, in order.
1. COc1cc(/C=C(\NC(=O)c2ccccc2)c2nc3ccc4c(c3[nH]2)C(=O)c2ccccc2C4=O)cc(OC)c1OC
2. O=C1CCC2c3ccccc3NCN12 (stereo not given)
3. COc1cc(COC(=O)N2CC=CC2C(=O)O)c([N+](=O)[O-])cc1OC (stereo not given)
4. CC(=O)Nc1ccc(/C=C(\NC(=O)c2ccccc2)c2nc3ccc4c(c3[nH]2)C(=O)c2ccccc2C4=O)cc1
5. O=C1CCCC[C@H]1C(O)CC1CC(=O)N(c2ccccc2)C(=O)C1 (stereo not given in full)

21.4 µM (inactive)
> 100 µM (inactive)
> 100 µM (inactive)
12.5 µM (inactive)
> 100 µM (inactive)

Batch of 3 compounds: report GI50 for each.
1. N#Cc1c(O)c(C=O)c(=O)n2c1[nH]c1ccccc12
2. Clc1ccc2nc3c(c(-c4ccccc4)nn3-c3ccccc3)c(-c3ccccc3)c2c1
3. COc1cc2c(=O)cnoc2cc1O

1: > 100 µM (inactive); 2: > 100 µM (inactive); 3: > 100 µM (inactive)

For the compound shown here, Cc1cnccc1/N=N/c1ccc(N(C)C)cc1 , give the reported GI50. 30.7 µM (inactive)

---

test system: K562; assay: NCI tumour cell line growth inhibition, 48 h
The source made the active and inactive calls. No stated cut-off is given here; in the data, active = GI50 up to about 1.1 µM and inactive = higher.
For each record, write down the corresponding GI50.

Worked examples follow.
Compound	Endpoint value
c1ccc2c(c1)[nH]c1c2nc2ccccn21	74.3 µM (inactive)
CC(CNCCCNCCNCCCNCO)[N+](=O)[O-] (stereo unspecified)	3.44 µM (inactive)
O=C1/C(=C\c2cccc(Oc3ccccc3)c2)SC(c2ccccc2)N1c1ccccc1Cl (stereo unspecified)	23 µM (inactive)
COC(=O)[C@]1(C)CCCC2(C)C3=C(CCC21)CC1(CC3)SCCS1 (stereo partly specified)	> 10 µM (inactive)
CC1=NOC2(C1)C(=O)Nc1ccccc12 (stereo unspecified)	> 100 µM (inactive)

--- query ---
Looking for the measured GI50 of CCCCCCCCCCCCCCC1OC(=O)c2ccccc21 (stereo unspecified) , can you help? 30.6 µM (inactive)

The measured values listed here are drawn from ChEMBL document CHEMBL1201862.
